# System: pdr5 ypt1^ts cells
# procedure_summary: microbe, parasite or virus in culture
# Assay type: cell-based, yeast
# particulars: Table 2; 6.25 μM compound; 37° C.; background (0 μM) 0.058
Each record here notes measured optical density, ypt1-ts, 6.25.
Lab note: write the figure by itself, no unit.

Worked set:
>  <compound>
C=C1C2CC[C@@]3(C)[C@H](c4ccoc4)OC(=O)C[C@]13O[C@H]1CC(=O)C(C)(C)C(CC(=O)OC)C21C (stereo partly drawn) [[…], METHYL ESTER]

>  <optical density, ypt1-ts, 6.25>
0.53

$$$$
>  <compound>
COC(=O)[C@]1(C)CC[C@]2(C)CC[C@]3(C)C4=CCc5c(cc(O)c(O)c5C)[C@]4(C)CC[C@@]3(C)[C@@H]2C1

>  <optical density, ypt1-ts, 6.25>
0.168

$$$$
>  <compound>
C=C1CCC2C(CC2(C)C)C(=C)CC/C1=N/O (stereo not drawn) [5- HYDROXYIMINOISOC ARYOPHYLLENE]

>  <optical density, ypt1-ts, 6.25>
0.117

$$$$
>  <compound>
CC(C)c1c(O)ccc2c1CCC1[C@@](C)(CO)CCC[C@]21C (stereo partly drawn) [HYDROXY (19)TOTAROL]

>  <optical density, ypt1-ts, 6.25>
0.125

$$$$
>  <compound>
O=C(/C=C(\O)c1ccccc1)c1ccccc1O [2',beta- DIHYDROXYCHALCONE]

>  <optical density, ypt1-ts, 6.25>
0.124

$$$$

Dear colleague, I am looking for the recorded optical density, ypt1-ts, 6.25 of the following compound: COC(=O)C[C@H]1C(C)(C)[C@@H](O)[C@@H]2CC3=C4C=C(OC)O[C@@H](c5ccoc5)[C@]4(C)CCC3[C@]1(C)C2=O (stereo partly drawn) [3-DEOXO-3beta-HYDRO[…] 16-ENOL ETHER] 0.219

Dear colleague, I am looking for the recorded optical density, ypt1-ts, 6.25 of the following compound: C=C1[C@H]2CC[C@@]3(C)[C@H](c4ccoc4)OC(=O)C[C@]13O[C@H]1C[C@@H](O)C(C)(C)[C@H](CC(=O)OC)[C@]12C [3alpha-HYDROXY-3- DEOXY[…] METHYL ESTER2] 0.381

Dear colleague, I am looking for the recorded optical density, ypt1-ts, 6.25 of the following compound: CCC(=O)Nc1ccc(Cl)c(Cl)c1 0.108

Dear colleague, I am looking for the recorded optical density, ypt1-ts, 6.25 of the following compound: O=C(/C=C/c1ccccc1)c1ccc(O)cc1 [4'- HYDROXYCHALCONE] 0.1

Dear colleague, I am looking for the recorded optical density, ypt1-ts, 6.25 of the following compound: CC(C)N(C(=O)CCl)c1ccccc1 0.141

====

# Test system: pdr5 ypt1^ts cells
# procedure_summary: microbe, parasite or virus in culture
# Format: cell-based, yeast
# particulars: Table 3; 50 uM compound; 37° C.; background (0 uM) 0.077
Each record here notes measured optical density, 50 uM.

>  <molecule>
COc1c2c(cc3c1OCO3)[C@]13C=C[C@H](OC)C[C@H]1N(C2)C[C@@H]3O

>  <optical density, 50 uM>
0.057

$$$$
>  <molecule>
CCOP(=S)(OCC)Oc1nc(Cl)c(Cl)cc1Cl

>  <optical density, 50 uM>
0.253

$$$$
>  <molecule>
CC(=O)O[C@@H]1CC2C(C)(C)CCC[C@]2(C)C2CC[C@]3(C)C(=CC(=O)O[C@H]3c3ccoc3)[C@@]21C (stereo partly shown) [DEOXO- DEOXY- DIHYDRO- GEDUNIN]

>  <optical density, 50 uM>
0.452

$$$$

Dear colleague, I am looking for the recorded optical density, 50 uM of the following molecule: CNC(=O)Oc1cccc2c1OC(C)(C)C2 0.239

====

# Test system: pdr5 ypt1^ts cells
# procedure_summary: microbe, parasite or virus in culture
# Assay type: cell-based, yeast
# particulars: Table 2; 12.5 μM compound; 37° C.; background (0 μM) 0.058
measured_quantity: optical density, ypt1-ts, 12.5
Lab note: write the figure by itself, no unit.

>  <substance>
NIMODIPINE [reference compound]

>  <optical density, ypt1-ts, 12.5>
0.178

$$$$
>  <substance>
FUSIDIC ACID [reference compound]

>  <optical density, ypt1-ts, 12.5>
0.296

$$$$

Dear colleague, I am looking for the recorded optical density, ypt1-ts, 12.5 of the following substance: AKLAVINE HYDROCHLORIDE 0.145

Dear colleague, I am looking for the recorded optical density, ypt1-ts, 12.5 of the following substance: DACTINOMYCIN [reference compound] 0.663

====

# Tested on: pdr5 ypt1^ts cells
# procedure_summary: microbe, parasite or virus in culture
# Format: cell-based, yeast
# particulars: Table 3; 50 uM compound; 37° C.; background (0 uM) 0.077
measured_quantity: optical density, 50 uM
Lab note: write the figure by itself, no unit.

Worked set:
>  <compound>
C[n+]1c2cc(N)ccc2cc2ccc(N)cc21.[Cl-] [ACRIFLAV- INIUM HYDRO- CHLORIDE, reference compound]

>  <optical density, 50 uM>
0.151

$$$$
>  <compound>
Cc1c(O)c(O)cc2c1CC=C1[C@@]2(C)CC[C@@]2(C)C3C[C@](C)(C(=O)O)CC[C@]3(C)CC[C@]12C (some centres unmarked) [DIHYDRO- CELASTROL]

>  <optical density, 50 uM>
0.33

$$$$
>  <compound>
COc1ccc(C(=O)c2ccccc2)c(O)c1O [3-DESMETHYL- 5-DES- HYDROXY- SCLEROIN]

>  <optical density, 50 uM>
0.556

$$$$

Attention now shifts to the item below.
Dear colleague, I am looking for the recorded optical density, 50 uM of the following compound: COc1ccc(C2CC(=O)c3ccc(OC)cc3O2)cc1 (centres unmarked) 0.364

====

Each record here notes measured optical density, 50 uM.
# Test system: pdr5 ypt1^ts cells
# procedure_summary: microbe, parasite or virus in culture
# Format: cell-based, yeast
# particulars: Table 3; 50 uM compound; 37° C.; background (0 uM) 0.077
Lab note: write the figure by itself, no unit.

>  <compound>
COC(=O)C[C@H]1C(C)(C)C(=O)[C@@H]2CC3=C4CC(OC)O[C@@H](c5ccoc5)[C@]4(C)CCC3[C@@]1(C)C2=O (stereo partly drawn) [16-DEOXO- MEXICANOLIDE 16-METHYL ETHER]

>  <value>
0.55

$$$$
>  <compound>
COc1c(C(C)C)oc2cc3oc(=O)ccc3cc12

>  <value>
0.461

$$$$
>  <compound>
CC(CCC(=O)O)[C@H]1CCC2C3C(CC[C@@]21C)[C@@]1(C)CC[C@@H](O)C[C@H]1C[C@H]3O (stereo partly drawn) [CHENODIOL, reference compound]

>  <value>
0.15

$$$$
>  <compound>
C=C1[C@H]2CC[C@@]3(C)[C@H](c4ccoc4)OC(=O)C[C@]13O[C@H]1C[C@H](O)C(C)(C)[C@H](CC(=O)OC)[C@]12C [3-DEOXY-3beta- HYDROXY- […] METHYL ESTER]

>  <value>
0.621

$$$$
>  <compound>
CC(C)c1ccc2c(c1)CCC1[C@](C)(CN)CCC[C@]21C.O=S(=O)(O)O (stereo partly drawn) [18-AMINO ABIETA- 8,11,13- TRIENE SULFATE]

>  <value>
0.378

$$$$

Attention now shifts to the item below.
Checklist item: optical density, 50 uM tested on pdr5 ypt1^ts cells, entry COc1ccc(-c2coc3cc(O)cc(O)c3c2=O)cc1 , value? 0.055

====

Each record here notes measured optical density, ypt1-ts, 12.5.
# Tested on: pdr5 ypt1^ts cells
# procedure_summary: microbe, parasite or virus in culture
# Format: cell-based, yeast
# particulars: Table 2; 12.5 μM compound; 37° C.; background (0 μM) 0.058
Lab note: write the figure by itself, no unit.

Worked set:
>  <compound>
C=C1CCC(OC(C)=O)/C(C)=C/C[C@@H]2[C@@H]1CC2(C)C (stereo partly shown) [CARY[…]]

>  <optical density, ypt1-ts, 12.5>
0.239

$$$$
>  <compound>
COc1c2occc2cc2c(=O)c3c(oc12)COc1cc2c(cc1-3)OCO2 [DEHYDRO- PACHYRRHIZONE]

>  <optical density, ypt1-ts, 12.5>
0.149

$$$$
>  <compound>
COC(=O)C[C@H]1C(C)(C)C(=O)[C@@H]2CC3=C4CC(=O)O[C@@H](c5ccoc5)[C@]4(C)CCC3[C@]1(C)C2=O (stereo partly shown) [MEXICANOLIDE]

>  <optical density, ypt1-ts, 12.5>
0.377

$$$$
>  <compound>
CCOC(=O)c1c(C)cc(O)c(C)c1O [METHYL[…], ETHYL ESTER]

>  <optical density, ypt1-ts, 12.5>
0.119

$$$$
>  <compound>
CCOC(=O)c1c(C)cc(O)c(C=O)c1O [H[…], ETHYL ESTER]

>  <optical density, ypt1-ts, 12.5>
0.621

$$$$
>  <compound>
COc1ccc2oc3ccccc3c(=O)c2c1

>  <optical density, ypt1-ts, 12.5>
0.128

$$$$

Attention now shifts to the item below.
Dear colleague, I am looking for the recorded optical density, ypt1-ts, 12.5 of the following compound: Cc1ccc(C)c(OCCCC(C)(C)C(=O)O)c1 [GEMFIBROZIL, reference compound] 0.615
